Reference source for all entries: ChEMBL document CHEMBL6103588

biological target: Cholinesterase (Homo sapiens)
Sequence (P06276 whole entry): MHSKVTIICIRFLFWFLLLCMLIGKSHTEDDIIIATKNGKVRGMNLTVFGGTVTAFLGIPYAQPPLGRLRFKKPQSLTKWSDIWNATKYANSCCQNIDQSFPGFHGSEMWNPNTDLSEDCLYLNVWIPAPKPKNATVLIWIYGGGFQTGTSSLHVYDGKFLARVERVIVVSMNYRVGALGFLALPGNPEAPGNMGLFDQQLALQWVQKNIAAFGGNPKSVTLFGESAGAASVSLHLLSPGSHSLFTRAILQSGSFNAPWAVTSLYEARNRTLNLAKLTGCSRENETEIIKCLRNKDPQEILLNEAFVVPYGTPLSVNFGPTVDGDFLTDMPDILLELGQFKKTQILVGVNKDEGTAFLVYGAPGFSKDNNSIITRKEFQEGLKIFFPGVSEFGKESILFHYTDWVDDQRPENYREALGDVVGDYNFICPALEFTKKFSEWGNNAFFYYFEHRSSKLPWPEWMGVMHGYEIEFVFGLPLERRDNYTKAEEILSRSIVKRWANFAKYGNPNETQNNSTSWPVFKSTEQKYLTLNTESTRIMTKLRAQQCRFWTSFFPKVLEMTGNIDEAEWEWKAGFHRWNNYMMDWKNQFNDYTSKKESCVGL
In this section, each of the molecules is paired with its reported IC50.
Answer format: numeric, µM implied, no suffix.

In [3]: df
Out[3]:
                   compound_smiles  endpoint_value
0  Cc1ccc2sc(NC(=O)CCN3CCCC3)nc2c1              15

query: Enter measured IC50, system Cholinesterase (Homo sapiens), for the molecule shown: O=C(CCN1CCCC1)Nc1nc2ccc(Br)cc2s1
result: 12

----------
experiment: Acute toxicity in male Swiss albino mouse assessed as mortality rate at 900 mg/kg BW, po administered as single dose via gavage measured after 48 hrs by up-and-down method relative to control; assay type: organism-based; settings: in vivo
value-kind: mortality at 48 h (%)
Answer format: numeric, % implied, no suffix.

query: Please indicate mortality at 48 h recorded for COc1cc(/C=C/C(=O)Nc2ccc3sc(NCN4C(=O)CSC4=O)nc3c2)ccc1O
result: 66.7

----------
Biological target: Amine oxidase [flavin-containing] B (Homo sapiens)
Sequence (P27338 whole entry): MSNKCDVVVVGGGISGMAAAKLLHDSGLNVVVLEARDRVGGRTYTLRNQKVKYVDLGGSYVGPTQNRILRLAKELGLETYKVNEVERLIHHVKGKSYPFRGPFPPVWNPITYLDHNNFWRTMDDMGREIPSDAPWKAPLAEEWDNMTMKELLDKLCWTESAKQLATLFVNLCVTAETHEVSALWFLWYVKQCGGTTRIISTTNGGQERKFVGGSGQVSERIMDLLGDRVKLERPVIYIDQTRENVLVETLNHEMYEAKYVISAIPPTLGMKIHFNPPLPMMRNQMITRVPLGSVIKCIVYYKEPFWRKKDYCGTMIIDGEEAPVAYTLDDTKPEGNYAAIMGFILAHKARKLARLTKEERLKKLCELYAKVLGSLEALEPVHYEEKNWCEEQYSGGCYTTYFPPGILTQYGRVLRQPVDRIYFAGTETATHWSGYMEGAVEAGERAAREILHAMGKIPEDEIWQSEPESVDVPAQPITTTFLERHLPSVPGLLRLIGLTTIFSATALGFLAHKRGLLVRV
Assay: Inhibition of MAO-B (unknown origin)
value-kind: IC50
# output: number + unit

query: Please indicate IC50 recorded for O=C(/C=C/c1ccc(-c2ccccc2)cc1)Nc1nc2ccc(O)cc2s1
result: 37 nM

----------
biological target: Beta-secretase 1 (Homo sapiens, UniProt P56817); assay: Inhibition of BACE-1 (unknown origin) 667-676- (2, 4-dinitrophenyl) Lys-Arg-Arg amide trifluoroacetate as substrate preincubated for 15 mins followed by substrate addition and measured after 2 hrs by fluorescence spectrometric analysis; conditions: read-out: IC50
Sequence (P56817 whole entry): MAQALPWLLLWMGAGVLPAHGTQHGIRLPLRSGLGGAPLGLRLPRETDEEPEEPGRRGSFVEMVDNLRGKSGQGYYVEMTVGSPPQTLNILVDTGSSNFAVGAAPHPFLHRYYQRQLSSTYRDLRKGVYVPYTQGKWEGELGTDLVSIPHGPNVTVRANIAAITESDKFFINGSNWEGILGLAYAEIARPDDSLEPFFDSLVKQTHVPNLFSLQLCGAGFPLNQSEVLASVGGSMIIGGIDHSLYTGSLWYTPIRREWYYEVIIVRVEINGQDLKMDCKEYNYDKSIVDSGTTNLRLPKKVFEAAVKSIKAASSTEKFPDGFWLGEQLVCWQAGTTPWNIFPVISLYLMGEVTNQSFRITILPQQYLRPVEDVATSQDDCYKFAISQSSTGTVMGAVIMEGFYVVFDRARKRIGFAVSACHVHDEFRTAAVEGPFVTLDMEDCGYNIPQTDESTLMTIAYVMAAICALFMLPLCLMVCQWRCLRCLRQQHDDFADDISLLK
value-kind: IC50 (µM)
Answer format: numeric, µM implied, no suffix.

Worked examples, 2 compounds total:
>>> print(df.to_string())
                            compound_smiles                                       tgt  endpoint_value
0  O=C1S/C(=C\c2ccccc2)C(=O)N1c1csc(Nc2ccccc2)n1  Beta-secretase 1 (Homo sapiens, UniProt P56817)            10.2
1  C/C=C1\SC(=O)N(CNc2nc(-c3cc(Cl)cs3)c(Nc3ccc(S(N)(=O)=O)cc3)s2)C1=O  Beta-secretase 1 (Homo sapiens, UniProt P56817)            0.51

Here is another compound to look at.
query: Please indicate IC50 recorded for O=C1S/C(=C\c2c[nH]c3ccccc23)C(=O)N1c1csc(Nc2ccccc2)n1
result: 19.2
